System: human liver microsomes (HLMs)
procedureText: Identification of Ket and norKet metabolites in HLM incubates
Type: in vitro ADME
setupConditions: (R,S)-Ket 10 μM, HLMs 0.5 mg/ml; Fig. 2A
quantity: metabolite found in HLM incubates of (R,S)-Ket

>>> result("NC1(c2ccccc2Cl)CC(O)CCC1=O [4e, (2S,4R;2R,4S)-HNK]")
"trace amounts"
>>> result("NC1(c2ccccc2Cl)CC(O)CCC1=O [4d, (2S,4S;2R,4R)-HNK]")
"trace amounts"

----------
Give Vmax for every item shown.
targetOrTestSystem: expressed CYP3A5 (Homo sapiens)
procedureText: Incubation with expressed CYP3A5
Format: in vitro ADME
setupConditions: formation of metabolite from (R)-norKet; expressed CYP3A5 13 pmol, 37°C, 15 min
# value in pmol/min/pmol P450; strip the unit string

[in] Recall and state the measured Vmax for NC1(c2ccccc2Cl)CCC(O)CC1=O [4c, (2S,5S;2R,5R)-HNK] .
[out] 0.038

[in] Write down Vmax measured for item NC1(c2ccccc2Cl)CC(O)CCC1=O [4e, (2S,4R;2R,4S)-HNK]
[out] 0.087

[in] Look up and state reported Vmax for NC1(c2ccccc2Cl)CC(O)CCC1=O [4d, (2S,4S;2R,4R)-HNK]
[out] 0.029

[in] Give the reported Vmax for this molecule. NC1(c2ccccc2Cl)CCC(O)CC1=O [4f, (2S,5R;2R,5S)-HNK]
[out] 1.69

[in] Give the measured Vmax for NC1(c2ccccc2Cl)CCCC(O)C1=O [4a, (2S,6S;2R,6R)-HNK]
[out] 0.29

[in] Complete the entry with Vmax for NC1(c2ccccc2Cl)CCC=CC1=O (stereo not drawn) [DHNK, 5,6-dehydronorketamine]
[out] 0.079

----------
targetOrTestSystem: expressed CYP3A5 (Homo sapiens, UniProt P20815)
Sequence (P20815 whole entry): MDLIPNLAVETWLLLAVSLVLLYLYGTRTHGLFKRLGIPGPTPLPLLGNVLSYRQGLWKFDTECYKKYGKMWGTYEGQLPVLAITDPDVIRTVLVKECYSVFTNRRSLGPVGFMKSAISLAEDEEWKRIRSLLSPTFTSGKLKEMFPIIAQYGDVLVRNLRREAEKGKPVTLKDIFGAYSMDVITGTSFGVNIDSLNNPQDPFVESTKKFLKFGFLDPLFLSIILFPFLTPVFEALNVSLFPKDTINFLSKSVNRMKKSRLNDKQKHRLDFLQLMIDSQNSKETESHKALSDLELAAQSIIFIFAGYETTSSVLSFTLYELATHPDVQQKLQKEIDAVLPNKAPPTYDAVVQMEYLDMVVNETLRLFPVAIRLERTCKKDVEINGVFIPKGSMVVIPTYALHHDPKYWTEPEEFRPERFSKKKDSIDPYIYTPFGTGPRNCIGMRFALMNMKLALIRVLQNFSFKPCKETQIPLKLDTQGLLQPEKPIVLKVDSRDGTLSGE
procedureText: Incubation with expressed CYP3A5
Assay type: in vitro ADME
setupConditions: formation of metabolite from (S)-norKet; expressed CYP3A5 13 pmol, 37°C, 15 min
quantity: Vmax (pmol/min/pmol P450)
The answer is to be given in pmol/min/pmol P450; state only the numeric part.

[in] Return reported Vmax. Input compound: NC1(c2ccccc2Cl)CCC(O)CC1=O [4f, (2S,5R;2R,5S)-HNK]
[out] 5.71

[in] Look up Vmax of NC1(c2ccccc2Cl)CC(O)CCC1=O [4e, (2S,4R;2R,4S)-HNK] and report it.
[out] 3.14

[in] Return the recorded Vmax value; entry: NC1(c2ccccc2Cl)CCC(O)CC1=O [4c, (2S,5S;2R,5R)-HNK]
[out] 0.30

[in] Tell me Vmax reported for NC1(c2ccccc2Cl)CCCC(O)C1=O [4a, (2S,6S;2R,6R)-HNK]
[out] 3.87

[in] Look up and state reported Vmax for NC1(c2ccccc2Cl)CC(O)CCC1=O [4d, (2S,4S;2R,4R)-HNK]
[out] 0.20

[in] // Input: NC1(c2ccccc2Cl)CCC=CC1=O (stereo not drawn) [DHNK, 5,6-dehydronorketamine] . Output its Vmax only.
[out] 1.96

----------
Tested on: human liver microsomes (HLMs)
procedureText: Identification of Ket and norKet metabolites in HLM incubates
Assay type: in vitro ADME
setupConditions: (R,S)-norKet 10 μM, HLMs 0.5 mg/ml; Fig. 2
quantity: metabolite found in HLM incubates of (R,S)-norKet

>>> result("NC1(c2ccccc2Cl)CC(O)CCC1=O [4d, (2S,4S;2R,4R)-HNK]")
"trace amounts"
>>> result("NC1(c2ccccc2Cl)CC(O)CCC1=O [4e, (2S,4R;2R,4S)-HNK]")
"trace amounts"

----------
targetOrTestSystem: expressed CYP2A6 (Homo sapiens, UniProt P11509)
procedureText: Incubation with expressed CYP2A6
Assay type: in vitro ADME
setupConditions: formation of metabolite from (R)-norKet; expressed CYP2A6 13 pmol, 37°C, 15 min
quantity: Vmax (pmol/min/pmol P450)
Form entry: value (pmol/min/pmol P450) — number only.

[in] Let me know recorded Vmax for NC1(c2ccccc2Cl)CCC(O)CC1=O [4f, (2S,5R;2R,5S)-HNK] , thanks.
[out] 0.44

[in] Complete the entry with Vmax for NC1(c2ccccc2Cl)CCC(O)CC1=O [4c, (2S,5S;2R,5R)-HNK]
[out] 1.25

[in] Supply Vmax value. Item: NC1(c2ccccc2Cl)CCCC(O)C1=O (centres unmarked)
[out] 8.18

[in] Quote Vmax reported for NC1(c2ccccc2Cl)CCC=CC1=O (centres unmarked) [DHNK, 5,6-dehydronorketamine] please.
[out] 0.98

[in] Determine its reported Vmax: NC1(c2ccccc2Cl)CC(O)CCC1=O (centres unmarked)
[out] 1.28

----------
For each of the compounds below, state its Vmax.
targetOrTestSystem: expressed CYP2A6 (Homo sapiens, UniProt P11509)
Sequence (P11509 1-494): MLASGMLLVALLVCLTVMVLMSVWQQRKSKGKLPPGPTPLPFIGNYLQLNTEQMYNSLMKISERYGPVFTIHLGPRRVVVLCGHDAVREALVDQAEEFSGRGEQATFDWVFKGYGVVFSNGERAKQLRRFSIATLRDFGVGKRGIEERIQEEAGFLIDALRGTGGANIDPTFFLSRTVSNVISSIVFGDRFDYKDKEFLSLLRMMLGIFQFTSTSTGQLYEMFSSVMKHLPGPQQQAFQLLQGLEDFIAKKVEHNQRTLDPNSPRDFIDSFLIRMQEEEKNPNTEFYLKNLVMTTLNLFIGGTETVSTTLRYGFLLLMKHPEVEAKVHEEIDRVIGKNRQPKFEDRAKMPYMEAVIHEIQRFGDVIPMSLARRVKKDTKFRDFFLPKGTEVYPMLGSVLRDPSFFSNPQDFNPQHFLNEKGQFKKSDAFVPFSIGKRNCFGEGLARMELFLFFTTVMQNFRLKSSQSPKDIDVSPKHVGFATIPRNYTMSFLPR
procedureText: Incubation with expressed CYP2A6
Assay type: in vitro ADME
setupConditions: formation of metabolite from (S)-norKet; expressed CYP2A6 13 pmol, 37°C, 15 min
Write the value in pmol/min/pmol P450 as a bare number.

[in] Look up and state reported Vmax for NC1(c2ccccc2Cl)CC(O)CCC1=O [4d, (2S,4S;2R,4R)-HNK]
[out] 4.67

[in] Return Vmax (reported value) for this compound: NC1(c2ccccc2Cl)CCC(O)CC1=O [4f, (2S,5R;2R,5S)-HNK]
[out] 0.33

[in] Please give measured Vmax of the following entry: NC1(c2ccccc2Cl)CCC(O)CC1=O [4c, (2S,5S;2R,5R)-HNK]
[out] 1.48

[in] Complete the entry with Vmax for NC1(c2ccccc2Cl)CCCC(O)C1=O [4a, (2S,6S;2R,6R)-HNK]
[out] 3.9

[in] Specify Vmax for NC1(c2ccccc2Cl)CCC=CC1=O (centres unmarked) [DHNK, 5,6-dehydronorketamine] and stop.
[out] 0.92

----------
targetOrTestSystem: UniProtKB P20813
procedureText: Incubation with expressed CYP2B6
Assay type: in vitro ADME
setupConditions: formation of metabolite from (S)-norKet; expressed CYP2B6 13 pmol, 37°C, 15 min
Exercise: state measured Vmax for each of the molecules provided.
# value in pmol/min/pmol P450; strip the unit string

[in] Note Vmax for the molecule shown: NC1(c2ccccc2Cl)CCC(O)CC1=O [4c, (2S,5S;2R,5R)-HNK]
[out] 16.3

[in] Please give the documented Vmax of NC1(c2ccccc2Cl)CC(O)CCC1=O (centres unmarked)
[out] 3.34

[in] Report Vmax, nothing else, for this molecule: NC1(c2ccccc2Cl)CCC=CC1=O (centres unmarked) [DHNK, 5,6-dehydronorketamine]
[out] 7.61

[in] // fetch Vmax given entry NC1(c2ccccc2Cl)CCC(O)CC1=O [4f, (2S,5R;2R,5S)-HNK]
[out] 0.30

[in] Specify Vmax for NC1(c2ccccc2Cl)CCCC(O)C1=O (centres unmarked) and stop.
[out] 0.56

----------
targetOrTestSystem: expressed CYP2B6 (Homo sapiens, UniProt P20813)
Sequence (P20813 whole entry): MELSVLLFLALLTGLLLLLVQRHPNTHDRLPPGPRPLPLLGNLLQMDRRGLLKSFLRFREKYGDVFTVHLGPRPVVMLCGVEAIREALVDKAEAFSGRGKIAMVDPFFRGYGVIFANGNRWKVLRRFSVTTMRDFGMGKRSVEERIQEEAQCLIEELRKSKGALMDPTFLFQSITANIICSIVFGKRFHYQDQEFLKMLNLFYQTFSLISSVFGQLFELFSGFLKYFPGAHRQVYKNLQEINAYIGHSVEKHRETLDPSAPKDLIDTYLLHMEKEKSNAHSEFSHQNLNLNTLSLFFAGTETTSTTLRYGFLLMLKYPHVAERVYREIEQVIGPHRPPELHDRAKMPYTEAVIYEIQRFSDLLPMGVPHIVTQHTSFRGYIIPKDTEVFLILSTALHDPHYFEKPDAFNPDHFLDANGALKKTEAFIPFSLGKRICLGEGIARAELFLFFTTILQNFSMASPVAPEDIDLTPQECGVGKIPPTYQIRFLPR
procedureText: Incubation with expressed CYP2B6
Type: in vitro ADME
setupConditions: formation of metabolite from (R)-norKet; expressed CYP2B6 13 pmol, 37°C, 15 min
quantity: Vmax (pmol/min/pmol P450)
Write it as a number; the unit pmol/min/pmol P450 goes unstated.

[in] Specify Vmax for NC1(c2ccccc2Cl)CC(O)CCC1=O (centres unmarked) and stop.
[out] 0.78

[in] Retrieve Vmax measured for NC1(c2ccccc2Cl)CCCC(O)C1=O (centres unmarked) and print it.
[out] 0.76

[in] Query Vmax for NC1(c2ccccc2Cl)CCC=CC1=O (centres unmarked) [DHNK, 5,6-dehydronorketamine]
[out] 13.0

[in] Quote Vmax reported for NC1(c2ccccc2Cl)CCC(O)CC1=O [4c, (2S,5S;2R,5R)-HNK] please.
[out] 16.72

[in] Note Vmax for the compound shown: NC1(c2ccccc2Cl)CCC(O)CC1=O [4f, (2S,5R;2R,5S)-HNK]
[out] 3.98
